test system: MIA PaCa-2 (pancreas, carcinoma) cells; test: Cell viability assay, CellTiter-Glo (Example 21); assay type: cell-based, human; conditions: 3.7 nM, 72 h treatment
MIA PaCa-2 (pancreas, carcinoma) cell viability (% of control) reference
metric.name: MIA PaCa-2 (pancreas, carcinoma) cell viability (% of control)

>>> value_reported("O=C1C2=C(CCN(Cc3cc(F)cc(F)c3)C2)N2CCN=C2N1Cc1ccc(F)cc1")
"87.4 ± 12.0 % of control"
>>> value_reported("[N-]=[N+]=Nc1cccc(CN2CCC3=C(C2)C(=O)N(Cc2ccc(Cl)cc2)C2=NCCN23)c1")
"104.0 ± 17.3 % of control"
>>> value_reported("O=C1C2=C(CCN(Cc3cccc(F)c3)C2)N2CCN=C2N1Cc1ccc(F)cc1 [I/6, reference compound]")
"101.6 ± 10.8 % of control"
>>> value_reported("O=C1C2=C(CCN(Cc3cccc(F)c3)C2)N2CCN=C2N1Cc1ccc(C(F)(F)F)cc1 [I/3, reference compound]")
"107.1 ± 16.4 % of control"
>>> value_reported("O=C1C2=C(CCN(Cc3ccccc3)C2)N2CCN=C2N1Cc1ccc(C(F)(F)F)cc1 [I/1, reference compound]")
"105.7 ± 8.5 % of control"
>>> value_reported("O=C1C2=C(CCN(Cc3cc(F)cc(F)c3)C2)N2CCN=C2N1Cc1ccc(Cl)cc1")
"33.5 ± 12.1 % of control"
>>> value_reported("O=C1C2=C(CCN(Cc3cc(F)cc(F)c3)C2)N2CCN=C2N1Cc1ccc(C(F)(F)F)cc1")
"65.7 ± 12.6 % of control"
>>> value_reported("[N-]=[N+]=Nc1cccc(CN2CCC3=C(C2)C(=O)N(Cc2ccc(C(F)(F)F)cc2)C2=NCCN23)c1")
"100.2 ± 8.8 % of control"
>>> value_reported("[N-]=[N+]=Nc1ccc(CN2C(=O)C3=C(CCN(Cc4cc(F)cc(F)c4)C3)N3CCN=C23)cc1")
"102.5 ± 5.4 % of control"

====

system: Detroit 562 (pharynx, carcinoma) cells; experiment: Cell viability assay, CellTiter-Glo (Example 21); type: cell-based, human; conditions: 11.1 nM, 72 h treatment
metric.name: Detroit 562 (pharynx, carcinoma) cell viability (% of control)

>>> value_reported("O=C1C2=C(CCN(Cc3cc(F)cc(F)c3)C2)N2CCN=C2N1Cc1ccc(C(F)(F)F)cc1")
"27.0 ± 5.5 % of control"
>>> value_reported("O=C1C2=C(CCN(Cc3ccccc3)C2)N2CCN=C2N1Cc1ccc(C(F)(F)F)cc1 [I/1, reference compound]")
"104.0 ± 17.2 % of control"
>>> value_reported("[N-]=[N+]=Nc1ccc(CN2C(=O)C3=C(CCN(Cc4cc(F)cc(F)c4)C3)N3CCN=C23)cc1")
"36.8 ± 5.1 % of control"
>>> value_reported("[N-]=[N+]=Nc1cccc(CN2CCC3=C(C2)C(=O)N(Cc2ccc(C(F)(F)F)cc2)C2=NCCN23)c1")
"32.8 ± 3.7 % of control"
>>> value_reported("O=C1C2=C(CCN(Cc3cccc(F)c3)C2)N2CCN=C2N1Cc1ccc(F)cc1 [I/6, reference compound]")
"50.9 ± 15.2 % of control"
>>> value_reported("O=C1C2=C(CCN(Cc3cc(F)cc(F)c3)C2)N2CCN=C2N1Cc1ccc(Cl)cc1")
"27.8 ± 3.6 % of control"
>>> value_reported("O=C1C2=C(CCN(Cc3cc(F)cc(F)c3)C2)N2CCN=C2N1Cc1ccc(F)cc1")
"28.4 ± 4.2 % of control"
>>> value_reported("[N-]=[N+]=Nc1cccc(CN2CCC3=C(C2)C(=O)N(Cc2ccc(Cl)cc2)C2=NCCN23)c1")
"31.1 ± 6.5 % of control"
>>> value_reported("O=C1C2=C(CCN(Cc3cccc(F)c3)C2)N2CCN=C2N1Cc1ccc(C(F)(F)F)cc1 [I/3, reference compound]")
"44.3 ± 11.0 % of control"
